system: CRD enzyme; assay: Effect of metal ions and inhibitors on CRD enzyme activity, ethyl 4-chloroacetoacetate as substrate; format: biochemical, Candida magnoliae IFO 0705; details: Concentration of addition 0.1 mM; non-added = 100

compound | Relative activity (%)
O=[N+]([O-])c1ccc(O)c([N+](=O)[O-])c1 [2,4-dinitrophenol] | 86
O=c1c(O)c(-c2ccc(O)c(O)c2)oc2cc(O)cc(O)c12 [Quercetin] | 0
[Cl][Hg][Cl] [HgCl2] | 49
O=c1oc2ccccc2c(O)c1Cc1c(O)c2ccccc2oc1=O [Dicoumarol] | 97

---

System: CRD enzyme
Test: Substrate specificity of the purified CRD enzyme (decrease in NADPH absorption at 340 nm)
Format: biochemical, Candida magnoliae IFO 0705
Details: Substrate 0.2 mM; 0.32 mM NADPH, 200 mM phosphate buffer pH 7.0, 30° C.; ethyl 4-chloroacetoacetate = 100
Procedure: First, the above yeast is cultured in an appropriate medium, and microbe bodies are collected from the resultant culture by centrifugation. […] The enzyme activity was determined by, basically, allowing 3 ml of a reaction solution including 0.2 mM ethyl 4-chloroacetoacetate as a substrate, 0.32 mM NADPH as a coenzyme, and 0.1 ml of an enzyme solution in a 200 mM phosphate buffer (pH 7.0) to react at 30° C. for one minute and measuring a reduction in the absorption at 340 nm. […]
observed property: Relative activity (%)

compound | experimental value
O=Cc1ccc([N+](=O)[O-])cc1 [p-nitrobenzaldehyde] | 0
O=Cc1ccc(Cl)cc1 [p-chlorobenzaldehyde] | 0
O=Cc1ccccc1 [Benzaldehyde] | 0
O=CCCl [Chloroacetoaldehyde] | 0
COC(=O)CC(=O)CCl [methyl 4-chloroacetoacetate] | 11
CC(=O)C=O [Methyl glyoxal] | 0
CCOC(=O)CC(=O)CCl [ethyl 4-chloroacetoacetate] | 100
CCOC(=O)CC(C)=O [Ethyl acetoacetate] | 0
O=CC=O [Glyoxal] | 0

---

system: CRD enzyme; assay: Substrate specificity of the purified CRD enzyme (decrease in NADPH absorption at 340 nm); type: biochemical, Candida magnoliae IFO 0705; details: Substrate 0.2 mM; 0.32 mM NADPH, 200 mM phosphate buffer pH 7.0, 30° C.; ethyl 4-chloroacetoacetate = 100
Items are presented alongside their recorded Relative activity (%).

compound | readout unit | Relative activity (%)
O=Cc1ccncc1 | % | 0
COC(=O)C(Cl)C(C)=O (centres unmarked) [methyl 2-chloroacetoacetate] | % | 11
CC(=O)C(C)=O | % | 19
CC12CCC(C(=O)C1=O)C2(C)C (centres unmarked) | % | 0
CCCCCCCCOC(=O)CC(=O)CCl [octyl 4-chloroacetoacetate] | % | 36
O=Cc1cccc([N+](=O)[O-])c1 | % | 0
O=Cc1cccc(Cl)c1 | % | 0
O=Cc1cccnc1 | % | 0
O=Cc1ccccc1Cl | % | 0
CCOC(=O)C(Cl)C(C)=O (centres unmarked) [ethyl 2-chloroacetoacetate] | % | 95
O=Cc1ccccc1[N+](=O)[O-] | % | 0

---

tested on: CRD enzyme; assay: Effect of metal ions and inhibitors on CRD enzyme activity, ethyl 4-chloroacetoacetate as substrate; type: biochemical, Candida magnoliae IFO 0705; details: Concentration of addition 1 mM; non-added = 100
Label true when Relative activity (%) >= 90%; otherwise false.

compound | cat
O=C(O)CN(CCN(CC(=O)O)CC(=O)O)CC(=O)O | true
[Cl][Sn][Cl] | false
NNc1ccccc1 [Phenylhydrazine] | true
[Cl][Pb][Cl] | false
O=S(=O)(F)Cc1ccccc1 | true
O=S(=O)([O-])[O-].[Cu+2] | false
O=S(=O)([O-])[O-].[Zn+2] | true
[Cl-].[Cl-].[Mg+2] | false
CCN1C(=O)C=CC1=O | true

Attribution: patent US6448052B2
